tested on: NCI-H460; experiment: relative viability (nuclei count vs DMSO), 5 days (fraction); higher = more cells survive; settings: first compound 0.04 µM
relative viability overview

Worked cases, relative viability given:
compound	relative viability
O=C(O)c1ccc(-c2c[nH]c3ncc(-c4ccccc4)cc23)cc1C1CCCC1 + Nc1nc2[nH]cc(CCc3ccc(C(=O)N[C@@H](CCC(=O)O)C(=O)O)cc3)c2c(=O)[nH]1 [Pemetrexed] (partner 0.2 µM)	0.0611
O=C(O)c1ccc(-c2c[nH]c3ncc(-c4ccccc4)cc23)cc1C1CCCC1 + NC(=O)Nc1cc(-c2cccc(F)c2)sc1C(=O)N[C@H]1CCCNC1 [AZD7762] (partner 0.2 µM)	0.625

Task item: Bench note: what relative viability did O=C(O)c1ccc(-c2c[nH]c3ncc(-c4ccccc4)cc23)cc1C1CCCC1 + N=C(N)NC(=N)NCCc1ccccc1 [Phenformin] (partner 250 µM) show?
Reply: 0.536
